List of Kd values.
# MEASURED_ON: nucleocapsid protein of SARS-CoV-2 (SARS-CoV-2, UniProt P0DTC9 1-419)
RECORDED_METRIC: Kd (nM)

binder="rabbit monoclonal antibody 5B12 against the SARS-CoV-2 nucleocapsid protein (antibody, V domains shown) VH: QSLEESGGDLVQPEGTLTLTCTASGFSFFYDYYMCWVRQAPGKGLEWIGCIYGASGDTYYASWAKGRFTISKTSSTTVTLRMTSLTAADTATYFCARDVDTGSGIDFELWGPGTLVTVSS VL: AYDMTQTPASVEVAVGGTVTIKCQASQSIGSYLSWYQQKPGQPPKLLIYSTSTLASGVPSRFKGSGSGTQFTLTISGVECADAATYYCQQGDTNHNIDNIFGGGTEVVVEG" recorded_metric=Kd number=1.89
binder="rabbit monoclonal antibody 1F8 against the SARS-CoV-2 nucleocapsid protein (antibody, V domains shown) VH: QEHLEESGGGLVKPGASLTLTCTASGFSLSNNYWICWVRQAPGKGLEWIACIYTGRDYTYYTSWAKGRFTISKTSSTTVTLQLNSLTAADTATYFCARNNTDYGDYWDLWGPGTLVTVSS VL: AQVLTQTASPVSVAVGDTVTINCQASQSVYKNNYLAWYQLKPGQPPKLLIYWGTKLPSGVPSRFKGSGSGTHFTLTISDVQCDDAATYYCLGSYDCTIAECNVFGGGTEVVVEG" recorded_metric=Kd number=2.29
binder="rabbit monoclonal antibody 1G7 against the SARS-CoV-2 nucleocapsid protein (antibody, V domains shown) VH: QQQVVESGGGLVKPGASLTLTCEASGFSFSSGYDMCWVRQAPGKGLEWIACIYPGSSGNTYYASWAKGRFTISKTSSTTVTLQMTSLTAADTATYFCARTYASSSGDYIPYFFNLWGPGTLVTVSS VL: DIVMTQTPASVEAAVGGTVTIKCQASENIYSGLAWYQQKPGQPPKLLIYDASDLASGVPSRFKGSGSGTEYTLTISDLECADAATYYCQNYYYSSRGFNTFGGGTEVVVKG" recorded_metric=Kd number=8.14
